B1: EEHEE_rd4_0763 (parent)
chain: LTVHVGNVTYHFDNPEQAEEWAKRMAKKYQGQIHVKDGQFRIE

variants of: B1; test: folding stability dG (cDNA display proteolysis); higher = more stable; conditions: PBS, room temperature
Listing of entries alongside the reported folding stability dG.
// return numeric value only (unit: kcal/mol, not printed)

Reference set, count: 3
* P15C | 1.86
* L1K | 1.51
* T2M | 1.53

Ask | # query: folding stability dG of entry "G31P"
Reply | 0.572

Ask | Any idea what its folding stability dG is? The variant is "V5I"
Reply | 1.69
